System: Clavibacter michiganensis (Gram positive)
Experimental protocol: Bacterial culture growth inhibition, cell density (OD: 600)
Type: cell-based
Settings: 5 μM, 24 h; untreated 1.61
Reported cell density (OD: 600) is given for each of the following molecules.
Number only, please.

[[record]]
molecule = "CN(C)CCOC(c1ccc(Cl)cc1)c1ccccn1.O=C(O)/C=C\\C(=O)O (stereo not shown) [Carbinoxamine maleate]"
attribute_measured = "cell density (OD: 600)"
numeric_result = 1.68


Req: Lab note: need cell density (OD: 600) for CCCNC(=O)NS(=O)(=O)c1ccc(Cl)cc1 [Chlorpropamide] on Clavibacter michiganensis (Gram positive), anyone have it?
Resp: 1.67

Req: Lab note: need cell density (OD: 600) for COc1ccc(C2COc3c(ccc(O)c3OC)C2)c(OC)c1O (single isomer, unassigned; (-)) [Duartin (−), (−)-duartin] on Clavibacter michiganensis (Gram positive), anyone have it?
Resp: 1.66

Req: Lab note: need cell density (OD: 600) for Cc1cc(O)cc(C)c1Cl on Clavibacter michiganensis (Gram positive), anyone have it?
Resp: 1.59

Attribution: patent US12458025B2
